Listed molecules paired with reported pIC50
- Experimental target: Nucleotide-binding oligomerization domain-containing protein 2 (Homo sapiens, UniProt Q9HC29)
- Sequence (Q9HC29 whole entry, the tested form may be a part): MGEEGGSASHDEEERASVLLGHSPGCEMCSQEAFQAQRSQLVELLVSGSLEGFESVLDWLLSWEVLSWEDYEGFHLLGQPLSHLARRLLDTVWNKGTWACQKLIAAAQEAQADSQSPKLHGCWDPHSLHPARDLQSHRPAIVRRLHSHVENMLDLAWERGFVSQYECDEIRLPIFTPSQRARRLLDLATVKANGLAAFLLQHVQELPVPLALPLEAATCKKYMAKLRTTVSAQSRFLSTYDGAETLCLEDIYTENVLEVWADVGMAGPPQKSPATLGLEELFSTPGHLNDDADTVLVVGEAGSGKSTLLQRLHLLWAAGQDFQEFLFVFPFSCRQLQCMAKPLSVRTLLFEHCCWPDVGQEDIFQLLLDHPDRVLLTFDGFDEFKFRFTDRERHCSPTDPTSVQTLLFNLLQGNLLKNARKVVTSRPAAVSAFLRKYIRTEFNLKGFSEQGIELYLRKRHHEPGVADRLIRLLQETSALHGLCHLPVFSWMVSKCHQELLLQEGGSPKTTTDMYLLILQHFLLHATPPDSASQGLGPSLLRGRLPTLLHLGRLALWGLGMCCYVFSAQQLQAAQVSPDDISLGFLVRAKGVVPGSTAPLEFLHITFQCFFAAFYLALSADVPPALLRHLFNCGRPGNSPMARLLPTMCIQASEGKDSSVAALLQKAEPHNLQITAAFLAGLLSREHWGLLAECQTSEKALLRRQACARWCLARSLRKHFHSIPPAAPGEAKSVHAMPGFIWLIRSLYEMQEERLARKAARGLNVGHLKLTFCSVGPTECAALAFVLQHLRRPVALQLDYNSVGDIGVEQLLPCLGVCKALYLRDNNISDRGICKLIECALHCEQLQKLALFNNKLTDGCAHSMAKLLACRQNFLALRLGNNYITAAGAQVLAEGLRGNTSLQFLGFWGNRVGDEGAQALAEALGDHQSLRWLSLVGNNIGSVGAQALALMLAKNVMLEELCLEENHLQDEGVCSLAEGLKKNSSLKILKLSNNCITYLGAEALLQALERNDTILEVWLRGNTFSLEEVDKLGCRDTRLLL
- Protocol summary: Antagonist activity at human NOD2 expressed in HEK-Blue cells assessed as inhibition of MDP-stimulated cell activation preincubated for 3 hrs followed by MDP addition measured after 20 hrs by SEAP reporter gene assay
pIC50: −log10 of the molar value.
Measure name: pIC50

>>> print(df.to_string())
                                smiles_data  test_result
0  CN(C)c1cccc(Oc2cc3c(cc2NC(=O)COCc2ccccc2)NC(=O)[C@@H](CCC(=O)NC(C)(C)C)NC3=O)c1         5.64
1  COC(=O)CC[C@H]1NC(=O)c2cc(Oc3ccc(Cl)c(N(C)C)c3)c(NC(=O)COCc3ccc(Cl)cc3)cc2NC1=O         5.99
2  CN(C)c1cccc(Oc2cc3c(cc2NC(=O)COCc2ccc(Cl)cc2)NC(=O)[C@@H](CCC(=O)N2CCCCC2)NC3=O)c1         6.05
3  CN(C)c1cccc(Oc2cc3c(cc2NC(=O)COCc2ccc(C(F)(F)F)cc2)NC(=O)[C@@H](CCC(=O)N2CCC(F)(F)CC2)NC3=O)c1         6.09
4  COC(=O)CC[C@H]1NC(=O)c2cc(Oc3cccc(N(C)C)c3)c(NC(=O)COCc3cccc(F)c3)cc2NC1=O         5.40
5  COC(=O)CC[C@H]1NC(=O)c2cc(Oc3cccc(N(C)C)c3)c(NC(=O)COCc3ccc(C(F)(F)F)cc3)cc2NC1=O         6.06
6  COC(=O)CC[C@@H]1NC(=O)c2cc(Oc3cccc(N(C)C)c3)c(NC(=O)COCc3ccc(C(F)(F)F)cc3)cc2NC1=O         6.23

###

- Experimental target: Nucleotide-binding oligomerization domain-containing protein 2 (Homo sapiens, UniProt Q9HC29)
- Protocol summary: Antagonist activity at human NOD2 expressed in HEK-Blue cells assessed as inhibition of MDP-stimulated cell activation at 10 uM preincubated for 3 hrs followed by MDP addition measured after 20 hrs by SEAP reporter gene assay
- Type: cell-based
Use 50% as the dividing line for inhibition, with the line itself on the Fulfilled side and lower values as Not fulfilled.

In [3]: df
Out[3]:
                                    compound  discrete_label
 0  COC(=O)CC[C@H]1NC(=O)c2cc(Oc3cccc(N(C)C)c3)c(NC(=O)COCc3ccc(OC)cc3)cc2NC1=O       Fulfilled
 1  COC(=O)CCC1NC(=O)c2cc(Cl)ccc2N(C)C1=O (stereo not drawn)   Not fulfilled
 2  CN(C)c1cccc(Oc2cc3c(cc2NC(=O)COCc2ccccc2)NC(=O)[C@@H](CCC(=O)N2CCCC2)NC3=O)c1       Fulfilled
 3  COC(=O)CC[C@H]1NC(=O)c2cc(Oc3cccc(N(C)C)c3)c(NC(=O)COCc3ccc(F)cc3)cc2NC1=O       Fulfilled
 4  CCCCCCCNC(=O)CC[C@H]1NC(=O)c2cc(Cl)ccc2NC1=O   Not fulfilled
 5  COC(=O)CC[C@H]1NC(=O)c2cc(Oc3cccc(N(C)C)c3Cl)c(NC(=O)COCc3ccc(Cl)cc3)cc2NC1=O   Not fulfilled
 6  CCN(CC)C(=O)CC[C@@H]1C(=O)N(CC2CC2)c2cc(Cl)ccc2C(=O)N1C   Not fulfilled
 7  CN(C)c1cccc(Oc2cc3c(cc2NC(=O)COCc2ccccc2)NC(=O)[C@@H](CCC(=O)N2CCCCC2)NC3=O)c1       Fulfilled
 8  COC(=O)CC[C@H]1NC(=O)c2cc(Oc3cccc(N(C)C)c3Cl)c(NC(=O)COCc3ccccc3)cc2NC1=O   Not fulfilled
 9  COC(=O)CC[C@H]1NC(=O)c2cc(Oc3ccc(C)c(C)c3)c(NC(=O)COCc3ccccc3)cc2NC1=O       Fulfilled
10  CCCCCCCCCCCCNC(=O)CC[C@H]1NC(=O)c2cc(Oc3cccc(N(C)C)c3)c(NC(=O)COCc3ccccc3)cc2NC1=O   Not fulfilled
11  CCCNC(=O)CC[C@H]1NC(=O)c2cc(Oc3cccc(N(C)C)c3)c(NC(=O)COCc3ccc(Br)cc3)cc2NC1=O   Not fulfilled
12  NC(=O)CC[C@H]1NC(=O)c2cc(Oc3cccc4ccccc34)c(NC(=O)C3CC3)cc2NC1=O   Not fulfilled
